# credit: patent US5589510A

I'd appreciate it if you could supply inhibition at 5 µg/mL values for the items below.
- Tested on: HIV-1 RF
- testDescription: Antiviral assay, Experimental Protocol I (compound added after infection)
- Format: cell-based
- experimentalSetup: Human immunodeficiency virus 1, 240 h, 10% FCS, 5 μg/ml, p24 ELISA, read-out: % Inhibition (after day 10)
Give bare numbers, in %.

// worked examples, inhibition at 5 µg/mL included
molecule	inhibition at 5 µg/mL, %
COc1cc(N=Nc2c(S(=O)(=O)O)cc3cc(S(=O)(=O)O)cc(NC(=O)c4cccc(Cl)c4Cl)c3c2O)c(OC)cc1N=Nc1c(S(=O)(=O)O)cc2cc(S(=O)(=O)O)cc(NC(=O)c3cc(Cl)ccc3Cl)c2c1O [Compound 9]	100
COc1cc(N=Nc2c(S(=O)(=O)O)cc3cc(S(=O)(=O)O)cc(NC(=O)c4cccc(Cl)c4Cl)c3c2O)c(OC)cc1N=Nc1c(S(=O)(=O)O)cc2cc(S(=O)(=O)O)cc(NC(=O)Cc3ccccc3)c2c1O [Compound 2]	98
COc1cc(N=Nc2c(S(=O)(=O)O)cc3cc(S(=O)(=O)O)cc(NC(=O)c4cc(Cl)ccc4Cl)c3c2O)c(OC)cc1N=Nc1c(S(=O)(=O)O)cc2cc(S(=O)(=O)O)cc(NC(=O)c3cc(Cl)ccc3Cl)c2c1O [Compound 7]	100
COc1cc(N=Nc2c(S(=O)(=O)O)cc3cc(S(=O)(=O)O)cc(NC(=O)c4ccccc4)c3c2O)c(OC)cc1N=Nc1c(S(=O)(=O)O)cc2cc(S(=O)(=O)O)cc(NC(C)=O)c2c1O [Compound 5]	100
CCC(C)(C)c1ccc(OCC(=O)Nc2cc(S(=O)(=O)O)cc3cc(S(=O)(=O)O)c(N=Nc4cc(OC)c(N=Nc5c(O)ccc6ccc(S(=O)(=O)O)cc56)cc4OC)c(O)c23)c(C(C)(C)CC)c1 [Compound 43]	99

Return reported inhibition at 5 µg/mL values for all items listed beneath this line.
1. Cc1cc(N=Nc2c(S(=O)(=O)O)cc3cc(S(=O)(=O)O)cc(NC(=O)c4cccc(Cl)c4Cl)c3c2O)c(C)cc1N=Nc1c(S(=O)(=O)O)cc2cc(S(=O)(=O)O)cc(NC(=O)c3ccc(Cl)cc3Cl)c2c1O [Compound 31]
2. COc1cc(N=Nc2c(O)ccc3ccc(S(=O)(=O)O)cc23)c(OC)cc1N=Nc1c(S(=O)(=O)O)cc2cc(S(=O)(=O)O)cc(NC(=O)Cc3cccc4ccccc34)c2c1O [Compound 42]
3. COc1cc(N=Nc2c(O)ccc3ccc(S(=O)(=O)O)cc23)c(OC)cc1N=Nc1c(S(=O)(=O)O)cc2cc(S(=O)(=O)O)cc(NC(=O)c3cccc4ccccc34)c2c1O [Compound 38]

[100, 99, 100]

* * *

- testDescription: LD50, intravenous, mice
- Assay type: in vivo
- experimentalSetup: mouse, in vivo, female mice, mortalities within 1 week
observedProperty: LD50 at 168 h (mg/kg)
Answers are plain numbers, in mg/kg.

compound	unitText	LD50 at 168 h
COc1cc(N=Nc2c(S(=O)(=O)O)cc3cc(S(=O)(=O)O)cc(NC(=O)c4cccc(Cl)c4Cl)c3c2O)c(OC)cc1N=Nc1c(S(=O)(=O)O)cc2cc(S(=O)(=O)O)cc(NC(=O)COc3ccccc3)c2c1O	mg/kg	160

Return reported LD50 at 168 h values for all items listed beneath this line.
1. COc1cc(N=Nc2c(S(=O)(=O)O)cc3cc(S(=O)(=O)O)cc(NC(=O)c4ccc(C)cc4)c3c2O)c(OC)cc1N=Nc1c(S(=O)(=O)O)cc2cc(S(=O)(=O)O)cc(NC(=O)c3ccccc3)c2c1O
2. Cc1cc(-c2ccc(/N=N/c3ccc4c(S(=O)(=O)O)cc(S(=O)(=O)O)c(N)c4c3O)c(C)c2)ccc1/N=N/c1ccc2c(S(=O)(=O)O)cc(S(=O)(=O)O)c(N)c2c1O [Evans Blue, reference compound]
3. COc1cc(N=Nc2c(S(=O)(=O)O)cc3cc(S(=O)(=O)O)cc(NC(=O)c4cccc(Cl)c4Cl)c3c2O)c(OC)cc1N=Nc1c(S(=O)(=O)O)cc2cc(S(=O)(=O)O)cc(NC(=O)Cc3ccccc3)c2c1O
4. COc1cc(N=Nc2c(S(=O)(=O)O)cc3cc(S(=O)(=O)O)cc(NC(=O)c4ccc(Cl)cc4Cl)c3c2O)c(OC)cc1N=Nc1c(S(=O)(=O)O)cc2cc(S(=O)(=O)O)cc(NC(=O)c3ccc(Cl)cc3Cl)c2c1O
5. CCCCCCC(=O)Nc1cc(S(=O)(=O)O)cc2cc(S(=O)(=O)O)c(N=Nc3cc(OC)c(N=Nc4c(S(=O)(=O)O)cc5cc(S(=O)(=O)O)cc(NC(=O)Cc6ccccc6)c5c4O)cc3OC)c(O)c12
6. COc1cc(N=Nc2c(S(=O)(=O)O)cc3cc(S(=O)(=O)O)cc(NC(=O)Nc4cccc5ccccc45)c3c2O)c(OC)cc1N=Nc1c(S(=O)(=O)O)cc2cc(S(=O)(=O)O)cc(NC(C)=O)c2c1O

1: 130; 2: 100; 3: 150; 4: 160; 5: 130; 6: 160

Return reported LD50 at 168 h values for all items listed beneath this line.
1. COc1cc(N=Nc2c(S(=O)(=O)O)cc3cc(S(=O)(=O)O)cc(NC(=O)c4cc(Cl)ccc4Cl)c3c2O)c(OC)cc1N=Nc1c(S(=O)(=O)O)cc2cc(S(=O)(=O)O)cc(NC(=O)c3cc(Cl)ccc3Cl)c2c1O
2. COc1cc(N=Nc2c(S(=O)(=O)O)cc3cc(S(=O)(=O)O)cc(NC(=O)c4cc(Cl)ccc4Cl)c3c2O)c(OC)cc1N=Nc1c(S(=O)(=O)O)cc2cc(S(=O)(=O)O)cc(NC(=O)c3ccc(Cl)c(Cl)c3)c2c1O

170
190
